# Test system: Cabbage Looper [Trichoplusia ni (Hubner)]
# Test Details: Cabbage looper insecticidal test
# Format: in vivo
# Cond: second-instar larvae, percent in solution; 3-5 days
Below, each entry is listed alongside its reported LC50, CL.
Number only, in %; omit the unit.

{"Molecule": "CC(C)C(=Nc1cccc(C(F)(F)F)c1)OCc1cccc(Oc2ccccc2)c1 [Compound 67]", "Measured": 0.001}
{"Molecule": "Fc1ccc(N=C(OCc2cccc(Oc3ccccc3)c2)C(Cl)=C(Cl)Cl)cc1 [Compound 49]", "Measured": 0.007}
{"Molecule": "CC(C)C(=Nc1ccc(F)c(Br)c1)OCc1cccc(Oc2ccc(F)cc2)c1 [Compound 253]", "Measured": 0.00013}

Let us examine a further case.
The molecule listed as CC(C)C(=Nc1ccc(C#N)cc1)OCc1cccc(Oc2ccc(Cl)cc2)c1 [Compound 393] has a reported LC50, CL of 0.00037

---

Reported values of LC50, MW for individual entries
# Test system: Maize weevil [Sitophilus Zeamais (Motschulsky)]
# Test Details: Maize weevil insecticidal test
# Format: in vivo
# Cond: adult weevils, percent in solution; 48 hours

Examples with their reported LC50, MW follow.
{"Compound": "CC(C)C(=Nc1ccc(Cl)cc1)OCc1cccc(Oc2ccc(Cl)cc2)n1", "Test Target": "Maize weevil [Sitophilus Zeamais (Motschulsky)]", "LC50, MW": "> 0.01%"}
{"Compound": "CC(C)C(=Nc1cccc(C(F)(F)F)c1)OCc1ccnc(Oc2ccc(Cl)cc2)c1", "Test Target": "Maize weevil [Sitophilus Zeamais (Motschulsky)]", "LC50, MW": "> 0.01%"}

# compound CC(C)C(=Nc1ccc2c(c1)OCO2)OCc1cccc(Oc2ccc(Cl)cc2)c1 ; its LC50, MW = > 0.01%

For record CC(C)C(=Nc1ccc(F)c(Cl)c1)OCc1cccc(Oc2ccccn2)c1 the listed LC50, MW is > 0.01%

Lab note: CC(C)C(=Nc1cccc(C(F)(F)F)c1)OCc1cccc(Nc2ccc(F)cc2)c1 gave LC50, MW of > 0.01%

Entry C=C(C)C(=Nc1ccc(C(F)(F)F)cc1)OCc1cccc(Oc2ccccc2)c1 ; LC50, MW = 0.004%

Kindly note the recorded LC50, MW for CC(C)C(=Nc1ccc(F)c(I)c1)OCc1ccc(F)c(Oc2ccc(F)cc2)c1 , which is 0.005%

Data point: CC(C)C(=Nc1ccc(OC(F)(F)C(F)Cl)cc1)OCc1ccc(F)c(Oc2ccccc2)c1 (centres unmarked) ; LC50, MW = > 0.01%

Query CC(C)(C)C(=Nc1ccc(Cl)cc1)OCc1cccc(Oc2ccccc2)c1 yields LC50, MW of > 0.01%

Looking up CC(C)C(=Nc1ccc(F)c(F)c1)OCc1ccc(F)c(Oc2ccccc2)c1 , I found its LC50, MW recorded as 0.0091%

---

# Tested on: Cabbage Looper [Trichoplusia ni (Hubner)]
# Test Details: Cabbage looper insecticidal test
# Format: in vivo
# Cond: second-instar larvae, percent in solution; 3-5 days
Mark each entry true if its LC50, CL sits below 0.003%, and false for all others.

{"Compound": "COc1ccc(N=C(OCc2ccc(F)c(Oc3ccccc3)c2)C(C)C)cc1Cl", "Category": "true"}

stdin: Dear colleague, could you confirm whether LC50, CL of CCCC(=Nc1ccc2c(c1)OCO2)OCc1cccc(Oc2ccccc2)c1 falls below 0.003%? Thanks.
stdout: true

stdin: For this compound, is LC50, CL lower than 0.003%? Cc1cccc(N=C(OCc2cccc(Oc3ccc(F)cc3)c2)C(C)C)c1
stdout: false

stdin: Consider the compound CC(C)C(=Nc1ccc(Cl)cc1)OC(C)c1cccc(Oc2ccccc2)c1 (centres unmarked) . Is its LC50, CL strictly less than 0.003%?
stdout: false

stdin: Please determine if C#CC(OC(=Nc1cccc(C(F)(F)F)c1)C(C)C)c1cccc(Oc2ccccc2)c1 (centres unmarked) is below 0.003% in terms of LC50, CL.
stdout: false

stdin: Given the entry CC(C)C(=Nc1ccc(F)c(Cl)c1)OCc1cccc(Oc2ccncc2)c1 , would its reported LC50, CL be below 0.003%?
stdout: false

stdin: Field: below-cutoff. Rule: recorded LC50, CL strictly less than 0.003%. Subject: C#CCc1c(F)c(F)c(COC(=Nc2cccc(C(F)(F)F)c2)C(C)C)c(F)c1F
stdout: true

The reported numbers originate from patent US5070210A.
